assay: Study 2: PPI (rabeprazole) interaction clinical study, single oral dose of encorafenib, plasma PK and safety; type: in vivo, human; details: human, plasma, oral, 300 mg; read-out: Vz/F
MEASUREMENT LABEL: Vd/F

COMPOUND	OBS VALUE
COC(=O)N[C@@H](C)CNc1nccc(-c2cn(C(C)C)nc2-c2cc(Cl)cc(NS(C)(=O)=O)c2F)n1 [encorafenib, Encorafenib]	470 L

###

assay: Study 2: PPI (rabeprazole) interaction clinical study, single oral dose of encorafenib, plasma PK and safety; type: in vivo, human; conditions: human, plasma, oral, 300 mg, study 2, encorafenib 300 mg alone, median (range); read-out: Tmax
MEASUREMENT LABEL: Tmax (h)

GIVEN SMILES	MEASUREMENT LABEL	OBS VALUE
COC(=O)N[C@@H](C)CNc1nccc(-c2cn(C(C)C)nc2-c2cc(Cl)cc(NS(C)(=O)=O)c2F)n1	Tmax	1.5

The values you see were collected from paper PMC10155203.
